test system: self-replicating, subgenomic HCV replicon in Huh-7 cells; test: HCV replicon assay; format: cell-based; conditions: Hepatitis C virus, Huh-7, 72 h
metric_name: EC50

Answered examples (6):
>  <compound>
C=C[C@]1(O)[C@H](n2ccc(=O)[nH]c2=O)O[C@](F)(CO[P@@](=O)(N[C@@H](C)C(=O)OC(C)C)Oc2ccccc2)[C@H]1O [Compound 77]

>  <EC50>
1000 to 10000 nM

$$$$
>  <compound>
C#C[C@]1(O)[C@H](n2cnc3c(OCC)nc(N)nc32)O[C@](F)(CO[P@](=O)(N[C@@H](C)C(=O)OC2CCCCC2)Oc2ccccc2)[C@H]1O [Compound 34]

>  <EC50>
< 1000 nM

$$$$
>  <compound>
C#C[C@]1(O)[C@H](n2cnc3c(OCC)nc(N)nc32)O[C@](F)(CO[P@@](=O)(N[C@@H](C)C(=O)OC2CCCCC2)Oc2ccccc2)[C@H]1O [Compound 35]

>  <EC50>
< 1000 nM

$$$$
>  <compound>
CCOc1nc(N)nc2c1ncn2[C@@H]1O[C@](F)(CO[P@](=O)(N[C@@H](C)C(=O)OC2CCCCC2)Oc2ccccc2)[C@@H](O)[C@@]1(C)F [Compound 32]

>  <EC50>
< 1000 nM

$$$$
>  <compound>
CC(C)(C)C(=O)SCCOP(=O)(OCCSC(=O)C(C)(C)C)OC[C@@]1(F)O[C@@H](n2ccc(=O)[nH]c2=O)[C@](C)(O)[C@@H]1O [Compound 58]

>  <EC50>
< 1000 nM

$$$$
>  <compound>
CCOc1nc(N)nc2c1ncn2[C@@H]1O[C@](F)(COP(=O)(N[C@@H](C)C(=O)OCC(C)C)Oc2ccccc2)[C@@H](O)[C@@]1(C)F (stereo partly shown) [Compound 86]

>  <EC50>
< 1000 nM

$$$$

Which EC50 reading was recorded for the compound C#C[C@]1(F)[C@H](n2cnc3c(OCC)nc(N)nc32)O[C@](F)(COP(=O)(N[C@@H](C)C(=O)OC2CCCCC2)Oc2ccccc2)[C@H]1O (single isomer, unassigned) [Compound 41] ?
1000 to 10000 nM

Returns the measured EC50 for the input compound. Input: C[C@H](NP(=O)(OC[C@@]1(F)O[C@@H](n2ccc(=O)[nH]c2=O)[C@](C)(O)C1O)Oc1ccccc1)C(=O)OCC(C)(C)C (stereo partly shown) [Compound 5]
< 1000 nM

For the compound shown here, CC(C)(C)C(=O)SCCOCCOP(=O)(OCCOCCSC(=O)C(C)(C)C)OC[C@@]1(F)O[C@@H](n2ccc(=O)[nH]c2=O)[C@](C)(O)[C@@H]1O [Compound 59] , give the reported EC50.
10000 to 100000 nM

Which EC50 value belongs to C[C@H](NP(=O)(OC[C@@]1(F)O[C@@H](n2ccc(=O)[nH]c2=O)[C@](C)(F)[C@@H]1O)Oc1ccccc1)C(=O)OC1CCCCC1 (stereo partly shown) [Compound 30] ?
< 1000 nM

----------
The following compounds are listed with their measured EC50 values.
test system: self-replicating, subgenomic HCV replicon in Huh-7 cells; assay: HCV replicon assay; format: cell-based; details: Hepatitis C virus, Huh-7, 72 h

Returns the measured EC50 for the input compound. Input: C#C[C@]1(F)[C@H](n2cnc3c(OCC)nc(N)nc32)O[C@](F)(COP(=O)(N[C@@H](C)C(=O)OC2CCCCC2)Oc2ccccc2)[C@H]1O (stereo partly drawn) [Compound 40]
1 to 10 µM

----------
biological target: NS5B570-Con1 (Delta-21) (Hepatitis C virus genotype 1b, UniProt Q9WMX2); assay: biochemical; format: biochemical, HCV (Con-1 strain); settings: 50 nM NS5B570-Con1, cIRES RNA template, 2 h at 37° C., mean of several independent experiments
metric_name: IC50

# get_value(readout='IC50', item= C#C[C@]1(F)[C@H](n2cnc3c(=O)[nH]c(N)nc32)O[C@](F)(COP(=O)(O)OP(=O)(O)OP(=O)(O)O)[C@H]1O [Compound 44] )
< 1000 nM

----------
target: NS5B570-Con1 (Delta-21) (Hepatitis C virus genotype 1b); assay: biochemical; format: biochemical, HCV (Con-1 strain); conditions: IC50, 50 nM NS5B570-Con1, cIRES RNA template, 2 h at 37° C., mean of several independent experiments
pIC50: −log10 of the molar value.
metric_name: pIC50

Look up pIC50: C[C@]1(O)[C@H](n2ccc(=O)[nH]c2=O)O[C@](F)(COP(O)(=S)OP(=O)(O)OP(=O)(O)O)[C@H]1O (single isomer, unassigned) [Compound 7b]
5.00 to 6.00

What pIC50 value was documented for this compound, C#C[C@]1(F)[C@H](n2cnc3c(=O)[nH]c(N)nc32)O[C@](F)(COP(=O)(O)OP(=O)(O)OP(=O)(O)O)[C@H]1O ?
> 6.00

Quick one: pIC50 for C#C[C@]1(O)[C@H](n2cnc3c(=O)[nH]c(N)nc32)O[C@](F)(COP(=O)(O)OP(=O)(O)OP(=O)(O)O)[C@H]1O ?
> 6.00

What value of measured pIC50 is listed for O=c1ccn([C@@H]2O[C@](F)(COP(=O)(O)OP(=O)(O)OP(=O)(O)O)[C@@H](O)[C@]2(O)CF)c(=O)[nH]1 ?
> 6.00

Which pIC50 is reported for this compound? C[C@]1(O)[C@H](n2ccc(=O)[nH]c2=O)O[C@](F)(COP(O)(=S)OP(=O)(O)OP(=O)(O)O)[C@H]1O (single isomer, unassigned) [Compound 7a]
> 6.00

----------
molecular target: NS5B570-Con1 (Delta-21) (Hepatitis C virus genotype 1b, UniProt Q9WMX2); assay: biochemical; format: biochemical, HCV (Con-1 strain); conditions: 50 nM NS5B570-Con1, cIRES RNA template, 2 h at 37° C., mean of several independent experiments; read-out: IC50
pIC50: −log10 of the molar value.
metric_name: pIC50

What does the data say about its pIC50? Entry: C[C@]1(Cl)[C@H](n2ccc(=O)[nH]c2=O)O[C@](F)(COP(=O)(O)OP(=O)(O)OP(=O)(O)O)[C@H]1O [Compound 46]
> 6.00
